B1: TPR t1 (parent)
chain: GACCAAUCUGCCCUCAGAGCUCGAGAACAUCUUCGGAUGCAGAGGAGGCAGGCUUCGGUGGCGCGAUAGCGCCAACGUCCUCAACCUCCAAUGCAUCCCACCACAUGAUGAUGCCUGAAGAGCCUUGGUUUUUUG

Variants of: B1
assay_protocol: polymerase ribozyme fitness, log enrichment relative to wild type (log ratio); higher = more active; in vitro selection for triplet polymerase activity
Catalogue of polymerase ribozyme fitness (log ratio) readings, one per entry.
Number only, no unit.

Sample records with polymerase ribozyme fitness (log ratio):
mutant_label	polymerase ribozyme fitness (log ratio)
G47C A66U A119U A121U	-0.0171
G35A C72G A105C U109G U116G A121G	-6.34
A43U C62G	-3.88
A29G C53A C70G G110C	-5.69
U38A G60U C62A A74U C115G	-6.4
G47A C70G	-4.77

Please supply the value of reported polymerase ribozyme fitness (log ratio) for the item G10C U14C C15U C94U C97U U112A -1.07

Return value of polymerase ribozyme fitness (log ratio) for input U9A A84U U92A U116G U132C , no commentary. -4.07

State its polymerase ribozyme fitness (log ratio) for this variant: A43G A50G G60U A95G U132C -3.96

Specify reported polymerase ribozyme fitness (log ratio) for the variant shown: C12A G57U C72U -0.582

Look up and state reported polymerase ribozyme fitness (log ratio) for G69U C94A C101G G120U -1.15

Give me measured polymerase ribozyme fitness (log ratio), please, for this variant: G77C C102U -2.02

Tell me measured polymerase ribozyme fitness (log ratio) for C88G G110A please. -1.15

// provenance: the RNAGym collection of RNA variant scans (doi:10.1073/pnas.2313332121)
